Data provenance: patent US20180201592A1

# Test system: A. fumigatus 210
# Assay remarks: Minimum inhibitory concentration, YAG medium
# Format: cell-based, Aspergillus fumigatus
# Run conditions: banded MIC grade

Molecule	Target or system	MIC grade, A. FUMIGATUS 210, YAG media
COCCC1=NN=C(N)SC1	A. fumigatus 210	2 (2: 1-5 mg/L)
CCCCc1ccc(COCCC2=NN=C(N)SC2)cc1	A. fumigatus 210	1 (1: ≥5 mg/L)
NC1=NN=C(CCCCOCc2ccc(F)cc2)CS1	A. fumigatus 210	2 (2: 1-5 mg/L)
NC1=NN=C(CCOCCCc2ccccc2)CS1	A. fumigatus 210	4 (4: <0.2 mg/L)
NC1=NN=C(CCCCOCc2cccc(Br)c2)CS1	A. fumigatus 210	4 (4: <0.2 mg/L)
NC1=NN=C2c3ccccc3CCC2S1 (stereo not drawn)	A. fumigatus 210	1 (1: ≥5 mg/L)
NC1=NN=C(CCCCOCc2ccc(F)cc2F)CS1	A. fumigatus 210	4 (4: <0.2 mg/L)
CC(C)c1ccc(C2=NN=C(N)SC2)cc1	A. fumigatus 210	1 (1: ≥5 mg/L)
NC1=NN=C(CCCCCOc2ccccn2)CS1	A. fumigatus 210	4 (4: <0.2 mg/L)
CCCc1ccc(C2=NN=C(N)SC2)cc1	A. fumigatus 210	3 (3: 0.2-1 mg/L)
NC1=NN=C(c2ccccn2)CS1	A. fumigatus 210	1 (1: ≥5 mg/L)
NC1=NN=C(CCCOc2ccccc2)CS1	A. fumigatus 210	4 (4: <0.2 mg/L)
COCCCC1=NN=C(N)SC1	A. fumigatus 210	4 (4: <0.2 mg/L)
COCCCCCC1=CSC(=N)NN1C	A. fumigatus 210	4 (4: <0.2 mg/L)
CCCCOCCC1=CNN=C(N)S1	A. fumigatus 210	2 (2: 1-5 mg/L)
